assay remarks: Acute toxicity in Swiss albino mouse assessed as effect on behavioural change up to 2000 mg/kg, po administered for 14 days
Assay type: organism-based
condition context: in vivo, 336 h, time 14 day
measured metric: Activity

Reference set, count: 4
>>> df
                                   compound  measured_metric     result
0  COC(=O)C1=C(C)NC(C)=C(C(=O)OC(C)(C)C)C1c1cccc2c1OCO2 (stereo not given)         Activity  Non-Toxic
1  CCOC(=O)C1=C(C)NC(C)=C(C(=O)OC)C1c1ccc2c(c1)OCO2 (stereo not given)         Activity  Non-Toxic
2  COC(=O)C1=C(C)NC(C)=C(C(=O)OC(C)C)C1c1ccc2c(c1)OCO2 (stereo not given)         Activity  Non-Toxic
3  CCOC(=O)C1=C(C)NC(C)=C(C(=O)OC)C1c1cccc2c1OCO2 (stereo not given) [OXODIPINE]         Activity  Non-Toxic

Consider the record given below.
What value of measured Activity is listed for COCCOC(=O)C1=C(C)NC(C)=C(C(=O)OC)C1c1cccc2c1OCO2 (stereo not given) ?
Non-Toxic
